The entries below come with measured Relative cAMP EC50 values attached.
Molecular target: T1, human GIP receptor (human) (UniProt P48546)
T1 sequence (looked up): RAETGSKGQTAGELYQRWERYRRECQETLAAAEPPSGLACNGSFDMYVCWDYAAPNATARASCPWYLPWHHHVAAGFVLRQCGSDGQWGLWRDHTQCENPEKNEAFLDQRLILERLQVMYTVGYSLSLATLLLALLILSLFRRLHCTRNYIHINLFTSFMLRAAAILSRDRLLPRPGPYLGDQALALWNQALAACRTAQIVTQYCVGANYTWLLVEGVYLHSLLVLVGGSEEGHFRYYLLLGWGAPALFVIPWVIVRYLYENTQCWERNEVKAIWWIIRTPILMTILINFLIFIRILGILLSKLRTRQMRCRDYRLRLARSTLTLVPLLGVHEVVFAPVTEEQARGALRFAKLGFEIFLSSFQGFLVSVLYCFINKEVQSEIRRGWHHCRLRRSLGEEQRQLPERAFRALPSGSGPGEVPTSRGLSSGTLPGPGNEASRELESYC
Assay: cell-based or functional assay
Starred links: 1 amine or outer side, 2 acyl side, 3 side chain; linkers in the order of their positions; H or OH if unused. Non-standard residues stand in square brackets, D forms with d. Groups on a side chain read outwards from the residue. No end group written: not given here. *: point of attachment. C20 diacid = O=C(O)CCCCCCCCCCCCCCCCCCC(=O)*; Phe(4-CN) = N#Cc1ccc(C[C@H](N)C(=O)O)cc1; αMePhe(2-F) = C[C@](N)(Cc1ccccc1F)C(=O)O; γGlu = O=C(O)[C@H](CCC(=O)[*:2])N[*:1]; AEEA = NCCOCCOCC(=O)O; Aib = CC(C)(N)C(=O)O

binder: YXQGTFTSDXSXXLDXKAQXAFIEXLIEXGPSSGEPPPSGS (Aib, 4Pal, Orn, Me4Pal, lipidated Lys, C-terminal amide; synthetic construct; SITE 2: note = 2-Aminoisobutyric Acid; SITE 10: note = 3-(4-Pyridyl)-L-alanine; SITE 12: note = L-ornithine; SITE 13: note = alpha-methyl-leucine; SITE 16: note = L-ornithine; SITE 17: note = Lysine is chemically modified through conjugation of the epsilon-amino group of the Lys) [Example 991]
Relative cAMP EC50: 0.119 nM
//
binder: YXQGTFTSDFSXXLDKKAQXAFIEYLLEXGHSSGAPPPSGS (Aib, Orn, αMeL; lipidated Lys; C-terminal amide; synthetic construct; SITE 2: note = 2-Aminoisobutyric Acid; SITE 12: note = L-ornithine; SITE 13: note = alpha-methyl-leucine; SITE 17: note = Lysine is chemically modified through conjugation of the epsilon-amino group of the Lysine side chain with (gamma-Glu)-(2-[2-(2-Amino-ethoxy)-ethoxy]-acetyl)) [Example 245]
Relative cAMP EC50: 0.0684 nM
//
binder: YXQGTXTSDXXIXLDXKAAXEFIEXLVEGGPSSGAPPPSGS (synthetic construct; SITE 2: note = 2-Aminoisobutyric Acid; SITE 6: note = alpha-methyl-2-fluoro-L-phenylalanine; SITE 10: note = 3-(4-Pyridyl)-L-alanine; SITE 11: note = alpha-methyl-L-serine; SITE 13: note = alpha-methyl-leucine; SITE 16: note = L-ornithine; SITE 17: note = Lysine is chemically mo) [Example 693 (SEQ ID NO: 699)]
Relative cAMP EC50: 0.0104 nM
//
binder: YXQGTFTSDXSQXLDKKAQXAFIEYLIEXGPSSGAPPPSGTGE (Aib, 4Pal, Me4Pal, alpha-methyl-Leu, lipidated Lys, C-terminal amide; synthetic construct; SITE 2: note = 2-Aminoisobutyric Acid; SITE 10: note = 3-(4-Pyridyl)-L-alanine; SITE 13: note = alpha-methyl-leucine; SITE 17: note = Lysine is chemically modified through conjugation of the epsilon-amino group of the Lysine side chain with (gamma-Glu)2-CO-(CH2)16-CO2H; SITE 20:) [Example 1127]
Relative cAMP EC50: 0.167 nM
//
binder: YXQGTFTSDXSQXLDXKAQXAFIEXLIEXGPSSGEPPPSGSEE (non-natural residues; acylated Lys; C-terminal amide; synthetic construct; SITE 2: note = 2-Aminoisobutyric Acid; SITE 10: note = 3-(4-Pyridyl)-L-alanine; SITE 13: note = alpha-methyl-leucine; SITE 16: note = L-ornithine; SITE 17: note = Lysine is chemically modified through conjugation of the epsilon-amino group of the Lysine side chain with (2-[2-(2-) [Example 1097]
Relative cAMP EC50: 0.136 nM
//
binder: YXQGTFTSDFSKXLDKKAQXAFIEYLLAGGPSSGEPPPGGS (Aib, αMeL; acylated Lys; C-terminal amide; synthetic construct; SITE 2: note = 2-Aminoisobutyric Acid; SITE 13: note = alpha-methyl-leucine; SITE 17: note = Lysine is chemically modified through conjugation of the epsilon-amino group of the Lysine side chain with (2-[2-(2-Amino-ethoxy)-ethoxy]-acetyl)-(gamma-Glu)-CO-(CH2) 18-CO2H; SITE 20: n) [Example 9]
Relative cAMP EC50: 0.205 nM
//
binder: YXQGTXTSDXSILLDKKAQXAFIEXLEEGGPSSGAPPPSGTGE (synthetic construct; SITE 2: note = 2-Aminoisobutyric Acid; SITE 6: note = alpha-methyl-2-fluoro-L-phenylalanine; SITE 10: note = 3-(4-Pyridyl)-L-alanine; SITE 17: note = Lysine is chemically modified through conjugation of the epsilon-amino group of the Lysine side chain with (gamma-Glu)2-CO-(CH2)1) [Example 664 (SEQ ID NO: 670)]
Relative cAMP EC50: 0.0159 nM
//
binder: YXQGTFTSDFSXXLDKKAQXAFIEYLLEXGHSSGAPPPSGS (non-natural residues; C18 diacid-γGlu-AEEA on Lys; C-terminal amide; synthetic construct; SITE 2: note = 2-Aminoisobutyric Acid; SITE 12: note = L-ornithine; SITE 13: note = alpha-methyl-leucine; SITE 17: note = Lysine is chemically modified through conjugation of the epsilon-amino group of the Lysine side chain with (2-[2-(2-Amino-ethoxy)-ethoxy]-acetyl)-(gamma-Glu)) [Example 241]
Relative cAMP EC50: 0.0748 nM
//
binder: YXQGTFTSDYSKXLDKKAQXAFIEYLLEGGESSGAPPPSGS (synthetic construct; SITE 2: note = 2-Aminoisobutyric Acid; SITE 13: note = alpha-methyl-leucine; SITE 17: note = Lysine is chemically modified through conjugation of the epsilon-amino group of the Lysine side chain with (2-[2-(2-Amino-ethoxy)-ethoxy]-acetyl)-(gamma-Glu)-CO-(CH2) 16-CO2H; SITE 20: n) [Example 358]
Relative cAMP EC50: 0.182 nM
//
binder: Y[Aib]QGT[αMePhe(2-F)]TSD[Phe(4-CN)]SILLDKQAQK([AEEA-AEEA-γGlu-C20 diacid])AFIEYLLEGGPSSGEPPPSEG-NH2 [Example 321]
Relative cAMP EC50: 0.0912 nM
//
binder: YXQGTFTSDFSXXLDKKAQXQFIEYLLAGGPSSGAPPPEGS (synthetic construct; SITE 2: note = 2-Aminoisobutyric Acid; SITE 12: note = L-ornithine; SITE 13: note = alpha-methyl-leucine; SITE 17: note = Lysine is chemically modified through conjugation of the epsilon-amino group of the Lysine side chain with (2-[2-(2-Amino-ethoxy)-ethoxy]-acetyl)-(gamma-Glu)) [Example 96]
Relative cAMP EC50: 0.456 nM
//
binder: YXQGTXTSDXXIXLDXKAQXEFIEXLIEGGPSSGEPPPESE (non-natural residues; K acylated AEEA-γGlu-C18 diacid; C-amide; synthetic construct; SITE 2: note = 2-Aminoisobutyric Acid; SITE 6: note = alpha-methyl-2-fluoro-L-phenylalanine; SITE 10: note = 3-(4-Pyridyl)-L-alanine; SITE 11: note = alpha-methyl-L-serine; SITE 13: note = alpha-methyl-leucine; SITE 16: note = L-ornithine; SITE 17: note = Lysine is chemically mo) [Example 1147]
Relative cAMP EC50: 0.00753 nM
